Listing: RP-LC retention time of selected compounds
method.summary: gradient 5% acetonitrile 3 min, to 50% in 2 min, to 85% in 15 min, held 3 min, 100 µL/min
condition.set: column: Zorbax Extend-C18 2.1 x 50 mm; eluents: water / acetonitrile, 0.1% formic acid
measured.property: RP-LC retention time (s)

INSERT INTO measurements (compound, unit_name, test_value) VALUES
  ('CCn1c(N2CCC(C(=O)NCc3ccc4c(c3)OCO4)CC2)cc(=O)n(C)c1=O', 's', 740),
  ('CC(C)OCCCNC(=O)c1cc2c(n(-c3ccc(F)cc3)c1=O)CCCC2=O', 's', 794),
  ('Cc1nn(CCC(=O)Nc2ccc(F)cc2F)c(=O)c2nn(-c3ccccc3)c(C)c12', 's', 795),
  ('O=C(c1sc(N2CCCCC2)nc1-c1ccccc1)c1c[nH]c2ccccc12', 's', 1080),
  ('CCN1C(=O)c2cccnc2Sc2cc(NC(=O)c3cccc(C(F)(F)F)c3)ccc21', 's', 957),
  ('Cc1cc(C)n(CCC(=O)N2CC(Oc3cccc(-c4nc(-c5ccccc5)no4)c3)C2)n1', 's', 1000),
  ('Cc1noc(-c2ccnc(-n3cnc(C(=O)NCc4cccc(Cl)c4)c3)c2)n1', 's', 760),
  ('Cc1c(Cl)cccc1NC(=O)N1CCc2nc(-c3ccc(F)cc3)ncc2C1', 's', 996),
  ('CCCN1CCN(C(=O)C2CCCN(c3nc4cccnc4s3)C2)CC1 (stereo not given)', 's', 593),
  ('Cn1cnc2ccc(-c3noc(-c4ccc(Br)cc4)n3)cc21', 's', 848),
  ('O=C(Nc1ccc(Nc2ccccc2)cc1)Nc1ccccc1Cl', 's', 1130),
  ('N#Cc1cccc(C(=O)Nc2cnn(-c3ncc(N4CCCC4)cn3)c2)c1', 's', 777),
  ('CCc1ccc(NC(=O)Cn2nc(N3CCCC3)c3ccccc3c2=O)cc1', 's', 1030),
  ('c1ccc(-c2cn3ccccc3n2)cc1', 's', 644),
  ('COc1ccc(NC(=O)Cn2cccc(-c3nc(-c4ccc(OC)c(OC)c4)no3)c2=O)cc1Cl', 's', 814),
  ('O=S(=O)(c1ccc2c(c1)CCC2)N1CCC(CN2CCCCCC2)CC1', 's', 708),
  ('Cc1ccccc1NC(=O)C(=O)Nc1ccccc1C', 's', 1080),
  ('CCCNc1nc(-c2cccc(Br)c2)cs1', 's', 1030),
  ('CCC(=O)N1CCc2cc(N3CC(C(=O)NCC4CC4)CC3=O)ccc21 (stereo not given)', 's', 652),
  ('CC(=O)N1CCN(c2nc3c(s2)CC(C(=O)N2CCCCCC2)CC3)CC1 (stereo not given)', 's', 614);

====

method.summary: gradient 5% acetonitrile 3 min, to 50% in 2 min, to 85% in 15 min, held 3 min, 100 µL/min
condition.set: column: Zorbax Extend-C18 2.1 x 50 mm; eluents: water / acetonitrile, 0.1% formic acid
Rule for this label: fulfilled means RP-LC retention time is less than 900 s; not fulfilled means RP-LC retention time is at least 900 s.

INSERT INTO assay_data (compound, class_name) VALUES
  ('COc1ccc(CNC(=O)Cn2c(=O)c(CCC(=O)NCC(C)C)nc3ccccc32)cc1', 'fulfilled'),
  ('Cc1ccc2c(c1)c(=O)c1c(n2C)CCN(CC(=O)Nc2ccccc2Cl)C1', 'fulfilled'),
  ('O=C(NC1CC1)[C@@H]1C[C@H](Oc2cccnc2)CN1C(=O)C1CC1', 'fulfilled'),
  ('COc1cc(NC(=O)NCCc2cn(C)c3ncccc23)cc(OC)c1', 'fulfilled'),
  ('CCOC(=O)c1cnc2nc(C)ccc2c1Nc1cc(OC)ccc1OC', 'fulfilled'),
  ('CCN1C(=O)C2(CCN(S(=O)(=O)c3cc(C)ccc3C)CC2)c2ccccc21', 'not fulfilled'),
  ('COc1ccc(OC)c(S(=O)(=O)N2[C@H]3CC[C@@H]2c2cnc(C)nc2C3)c1', 'fulfilled'),
  ('Cc1cccc(C)c1NC(=O)Cn1c(=O)nc(N2CCC(C)CC2)c2ccccc21', 'fulfilled'),
  ('COc1cccc(C(=O)NC2(C(F)(F)F)C(=O)N(CC(C)C)C3=C2C(=O)CC(C)(C)C3)c1 (stereo not given)', 'not fulfilled'),
  ('CCCn1cc(CCNS(=O)(=O)c2ccc(Cl)c(Cl)c2)c2cccnc21', 'not fulfilled'),
  ('COc1ccc2c(c1)C=C(C(=O)NCc1ccccc1OC)C=CO2', 'not fulfilled'),
  ('CCOC(=O)c1c(C)c(CCC(=O)NCCN2CCCCCC2)n(C)c1C', 'fulfilled'),
  ('O=c1cc(O)cc(/C=C/c2ccc(O)c(O)c2)o1', 'fulfilled'),
  ('CCCNC(=O)C1CCN(S(=O)(=O)c2cc(C(=O)N3CCCCCC3)cs2)CC1', 'fulfilled'),
  ('Cc1nc(-c2ccc(-c3noc(Cc4c[nH]c5ccccc45)n3)cc2)cs1', 'not fulfilled'),
  ('NC(=O)CNC(=O)c1sc2ncccc2c1-n1cccc1', 'fulfilled'),
  ('Cc1nn(Cc2nc(-c3ccc(NC(=O)C4CCCCC4)cc3)oc2C)c(C)c1C', 'not fulfilled'),
  ('CSc1ccc(-c2nc3cnccn3c2Nc2ccc(C(=O)NC(C)C)cc2)cc1', 'fulfilled'),
  ('Cc1ccc2c(c1)N(C(=O)Cn1ccc3ccn(Cc4ccccc4C)c3c1=O)CCO2', 'not fulfilled');

====

method.summary: gradient 5% acetonitrile 3 min, to 50% in 2 min, to 85% in 15 min, held 3 min, 100 µL/min
condition.set: column: Zorbax Extend-C18 2.1 x 50 mm; eluents: water / acetonitrile, 0.1% formic acid
Listing: RP-LC retention time of selected compounds
measured.property: RP-LC retention time (s)

INSERT INTO measurements (compound, measured_property, unit_name, test_value) VALUES
  ('COCCNC(=O)NCC(O)Cc1ccccc1 (stereo not given)', 'RP-LC retention time', 's', 591),
  ('CC(C)c1noc(C2(NC(=O)c3cccc(Cl)c3)CCCCC2)n1', 'RP-LC retention time', 's', 1130),
  ('Cn1cc(C(=O)NCCn2ncccc2=O)nn1', 'RP-LC retention time', 's', 520),
  ('Cc1ccnc(N2CCCC(C(=O)N3CCC(Cc4ccccc4)CC3)C2)n1 (stereo not given)', 'RP-LC retention time', 's', 987),
  ('Cn1cnc(S(=O)(=O)N2CCC(C(=O)NC3CCCCCC3)CC2)c1', 'RP-LC retention time', 's', 680),
  ('Cc1cc(C)cc(OCC(=O)Nc2nc(-c3ccccc3)cs2)c1', 'RP-LC retention time', 's', 1210),
  ('CC1Oc2ccccc2OC1C(=O)Nc1cccc(-c2cn3c(n2)SCC3)c1 (stereo not given)', 'RP-LC retention time', 's', 656),
  ('CC1CCN(S(=O)(=O)c2cccc(-c3nnc(-c4ccc(Cl)cc4)o3)c2)CC1', 'RP-LC retention time', 's', 1250),
  ('Cn1cc(-c2cc3n(n2)CCCN3C(=O)CCC(=O)N2CCN(c3ccccn3)CC2)c2ccccc21', 'RP-LC retention time', 's', 621),
  ('Cc1nc2cc(N3CC(C(=O)NCc4ccc(Br)cc4)CC3=O)ccc2o1 (stereo not given)', 'RP-LC retention time', 's', 761),
  ('O=C(CN1CCN(c2ccc(F)c(F)c2)C1=O)NC1CCS(=O)(=O)C1 (stereo not given)', 'RP-LC retention time', 's', 636),
  ('COc1cccc(C(=O)NC2(C(F)(F)F)C(=O)N(C3CCCC3)C(C)=C2C(C)=O)c1 (stereo not given)', 'RP-LC retention time', 's', 964),
  ('O=C(Nc1ncc(-c2ccccc2)s1)c1ccccc1Br', 'RP-LC retention time', 's', 936),
  ('Cc1cccc(C2=NC3(CCN(C(=O)Nc4ccc5c(c4)OCO5)CC3)NC2=O)c1', 'RP-LC retention time', 's', 790),
  ('Cc1ccc(NC(=O)N2CC(c3nc(C)no3)C3(CCOCC3)C2)c(C)c1 (stereo not given)', 'RP-LC retention time', 's', 731),
  ('COc1ccccc1CNC(=O)C1=C2CCCN2c2ccc(F)cc2S1(=O)=O', 'RP-LC retention time', 's', 882),
  ('CCCn1nc2ccc(S(=O)(=O)N3CCOCC3)cn2c1=O', 'RP-LC retention time', 's', 696),
  ('CCOC(=O)c1c(C)nc(C)c(C(=O)OCC)c1-c1cccnc1', 'RP-LC retention time', 's', 810),
  ('CCN1C(=O)c2cccnc2Sc2cc(C(=O)NCc3ccccc3F)ccc21', 'RP-LC retention time', 's', 803),
  ('CSc1ccc(-c2noc(CN3C(=O)COc4ccc(C(C)(C)C)cc43)n2)cc1', 'RP-LC retention time', 's', 1300),
  ('CCc1cccc(NC(=O)C2CCCN(S(=O)(=O)c3c[nH]c(C(=O)N4CCCCCC4)c3)C2)c1 (stereo not given)', 'RP-LC retention time', 's', 911),
  ('C=CCc1ccccc1OCC(O)CNC (stereo not given)', 'RP-LC retention time', 's', 566),
  ('O=C(Cn1nc(C(=O)N2CCCC2)c2ccccc21)NCc1ccc2c(c1)OCO2', 'RP-LC retention time', 's', 757),
  ('Cc1nnsc1C(=O)N1CCC(c2nnc(-c3ccco3)o2)CC1', 'RP-LC retention time', 's', 617),
  ('O=C(Cn1c(=O)n(C2CCCCC2)c2ncccc21)NCCN1CCOCC1', 'RP-LC retention time', 's', 627),
  ('COC(=O)C1=CN(c2cc(OC)ccc2OC)c2cc(F)ccc2S1(=O)=O', 'RP-LC retention time', 's', 819),
  ('CC1CCC(NC(=O)CN2C(=O)C(C(=O)N3CCCCC3)Sc3ccccc32)CC1 (stereo not given)', 'RP-LC retention time', 's', 1090),
  ('COc1ccccc1-c1noc(C2CCCN2C(=O)c2ccoc2)n1 (stereo not given)', 'RP-LC retention time', 's', 763),
  ('C=CC(=O)Nc1cccc(Oc2nc(Nc3ccc(N4CCN(C)CC4)cc3)ncc2Cl)c1', 'RP-LC retention time', 's', 695),
  ('Cc1cc(C)n(-c2ccc(C(=O)NC3CCCCC3)cn2)n1', 'RP-LC retention time', 's', 918),
  ('CCN1CCN(C(=O)C2CCN(c3nc4ccc(-c5cccs5)nc4s3)CC2)CC1', 'RP-LC retention time', 's', 586),
  ('O=C(Nc1cc(F)c(F)c(F)c1)N1C[C@H]2C[C@H](C1)[C@H]1CCCC(=O)N1C2', 'RP-LC retention time', 's', 717),
  ('CC(C)CN1C(=O)c2ccccc2C(C(=O)NCCCN2CCCC2=O)C1c1cccs1 (stereo not given)', 'RP-LC retention time', 's', 740),
  ('O=C(Cn1ccc2c(SCc3ccccc3)nccc21)N1CCN(c2ccc(F)cc2)CC1', 'RP-LC retention time', 's', 786),
  ('Cc1nc(-c2ccc(-c3noc(COc4ccccc4)n3)cc2)cs1', 'RP-LC retention time', 's', 1180),
  ('Cc1ccc(NC(=O)N(C)CC2CCOCC2)cc1F', 'RP-LC retention time', 's', 748),
  ('Cc1nc(CC(=O)NC(C)c2ccc(F)cc2)sc1C(=O)NC1CC1 (stereo not given)', 'RP-LC retention time', 's', 683),
  ('Cc1nn(-c2nc(-c3ccc(F)cc3)cs2)c(C)c1CC(=O)N1CCCCCC1', 'RP-LC retention time', 's', 1210),
  ('O=C(Cc1csc2nc(-c3cccc(Br)c3)cn12)NCc1ccc(F)cc1', 'RP-LC retention time', 's', 909),
  ('CCN1CCN(C(=O)Nc2ccc(Br)cc2)c2cccnc21', 'RP-LC retention time', 's', 666);

This collection of values is drawn from the METLIN SMRT retention time set (Domingo-Almenara et al. 2019).
